Target sequence: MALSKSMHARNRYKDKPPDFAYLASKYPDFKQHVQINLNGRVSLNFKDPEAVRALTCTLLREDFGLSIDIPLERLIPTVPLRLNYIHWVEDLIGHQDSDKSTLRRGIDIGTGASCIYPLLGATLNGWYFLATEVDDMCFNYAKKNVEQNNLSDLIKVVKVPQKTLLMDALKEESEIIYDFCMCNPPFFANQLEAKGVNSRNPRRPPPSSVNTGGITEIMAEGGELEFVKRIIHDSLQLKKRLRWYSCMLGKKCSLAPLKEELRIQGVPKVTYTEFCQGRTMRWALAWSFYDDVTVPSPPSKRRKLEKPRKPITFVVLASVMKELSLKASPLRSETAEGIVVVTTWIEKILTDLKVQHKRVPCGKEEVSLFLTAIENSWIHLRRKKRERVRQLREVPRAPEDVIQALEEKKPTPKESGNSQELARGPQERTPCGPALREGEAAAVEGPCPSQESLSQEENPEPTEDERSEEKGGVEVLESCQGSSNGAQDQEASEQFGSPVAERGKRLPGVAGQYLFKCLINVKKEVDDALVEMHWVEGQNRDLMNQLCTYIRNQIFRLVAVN
OBSERVABLE: IC50 (µM)
Give the number; µM is assumed, so skip it.

C/C(=N\NC(N)=S)c1ccc(F)cc1 ... 0.0609

Now for another entry.
Query: Look up IC50: C/C(=N\N=C(/N)S)c1ccccc1 [compound 1, [(E)-(1-phenylethylidene)amino]thiourea]
Response: 0.0258

---

STUDY_TARGET: METTL16 MTD (residues 1-291) (Homo sapiens, UniProt Q86W50)
Sequence (Q86W50 1-291): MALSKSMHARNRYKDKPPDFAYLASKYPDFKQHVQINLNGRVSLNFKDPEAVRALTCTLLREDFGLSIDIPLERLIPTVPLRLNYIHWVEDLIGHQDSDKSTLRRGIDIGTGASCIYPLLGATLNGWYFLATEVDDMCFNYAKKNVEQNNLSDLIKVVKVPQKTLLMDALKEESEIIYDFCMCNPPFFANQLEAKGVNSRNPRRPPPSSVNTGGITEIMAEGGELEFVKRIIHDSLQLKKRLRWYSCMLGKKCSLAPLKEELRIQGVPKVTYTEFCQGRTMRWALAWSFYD
Measured pKd accompanies every entry in the list below.
// pKd is dimensionless: -log10 of concentration (M)

Query: Look up pKd: C/C(=N\N=C(/N)S)c1ccccc1 [compound 1, [(E)-(1-phenylethylidene)amino]thiourea]
Response: 5.48

Query: Look up pKd: C/C(=N\NC(N)=S)c1ccc(F)cc1 [compound 2]
Response: 5.55
